- Study System: MMP-13CD (catalytic domain of collagenase 3) (Homo sapiens)
- Assay Details: Thiopeptolide hydrolysis assay, MMP-13CD
- Type: biochemical
- Condition Parameters: Table 2; thiopeptolide substrate, HEPES pH 7.0; read-out: IC50 (μM) Versus Certain MMPs: MMP13 (CD)
Property Label: IC50 (µM)

Recorded results for 4 compounds are shown here.
- Compound: "COc1ccc(CNC(=O)c2ccc3c(c2)S(=O)(=O)N(Cc2ccc(C(=O)O)cc2)C(=O)N3C)cc1 [Example 13]"
  IC50 / µM: 0.011
- Compound: "COc1ccc(CNC(=O)c2ccc3c(c2)S(=O)(=O)N(CCCCCC#N)C(=O)N3C)cc1 [Example 37]"
  IC50 / µM: 3.2
- Compound: "COc1ccc(CNC(=O)c2ccc3c(c2)S(=O)(=O)N(Cc2ccc(S(=O)(=O)N4CCOCC4)cc2)C(=O)N3C)cc1 [Example 19]"
  IC50 / µM: 0.23
- Compound: "C=C(C)CN1C(=O)N(C)c2ccc(C(=O)NCc3ccc(OC)cc3)cc2S1(=O)=O [Example 40]"
  IC50 / µM: 1.7

1. COc1cc(CNC(=O)c2ccc3c(c2)S(=O)(=O)N(Cc2ccccc2)C(=O)N3C)ccn1 [Example 21]
2. COc1ccc(CNC(=O)c2ccc3c(c2)S(=O)(=O)N(Cc2ccc([N+](=O)[O-])cc2)C(=O)N3C)cc1 [Example 17]
[ask] Lowest IC50? choose 1 or 2 Which one? Tell me its label.
[reply] 1
(1: 0.155 µM, 2: 0.615 µM)

---

- Study System: MMP-14CD (catalytic domain of MMP-14) (Homo sapiens)
- Assay Details: Thiopeptolide hydrolysis assay, MMP-14CD
- Assay type: biochemical
- Condition Parameters: Table 2; thiopeptolide substrate, HEPES pH 7.0; read-out: IC50 (μM) Versus Certain MMPs: MMP14 (CD)
- Excerpt: The invention compounds of Formula I have been evaluated in standard assays for their ability to inhibit the catalytic activity of various MMP enzymes. Thiopeptolide substrates show virtually no decomposition or hydrolysis at or below neutral pH in the absence of a matrix metalloproteinase enzyme. Several representative compounds have been evaluated for their ability to inhibit various matrix metalloproteinase enzymes.
Documented IC50 across a set of molecules

The cases that follow already have their IC50 on record.
- Smiles Record: "CN1C(=O)N(Cc2ccccc2)S(=O)(=O)c2cc(C(=O)NCc3ccc(F)cc3)ccc21"
  IC50: "> 30 µM"
- Smiles Record: "COc1ccc(CNC(=O)c2ccc3c(c2)S(=O)(=O)N(Cc2ccc(C(=O)N4CCCCC4)cc2)C(=O)N3C)cc1"
  IC50: "> 30 µM"

[ask] Recall and state the measured IC50 for `CN1C(=O)N(Cc2ccc(C(=O)O)cc2)S(=O)(=O)c2cc(C(=O)NCc3ccc(F)cc3)ccc21` .
[reply] > 100 µM

[ask] Note down IC50 recorded for `COC(=O)c1ccc(CN2C(=O)N(C)c3ccc(C(=O)NCc4ccc(F)cc4)cc3S2(=O)=O)cc1`
[reply] > 30 µM

---

- Study System: MMP-2FL (full-length Gelatinase A) (Homo sapiens)
- Sequence (P08253 110-660, species assumed): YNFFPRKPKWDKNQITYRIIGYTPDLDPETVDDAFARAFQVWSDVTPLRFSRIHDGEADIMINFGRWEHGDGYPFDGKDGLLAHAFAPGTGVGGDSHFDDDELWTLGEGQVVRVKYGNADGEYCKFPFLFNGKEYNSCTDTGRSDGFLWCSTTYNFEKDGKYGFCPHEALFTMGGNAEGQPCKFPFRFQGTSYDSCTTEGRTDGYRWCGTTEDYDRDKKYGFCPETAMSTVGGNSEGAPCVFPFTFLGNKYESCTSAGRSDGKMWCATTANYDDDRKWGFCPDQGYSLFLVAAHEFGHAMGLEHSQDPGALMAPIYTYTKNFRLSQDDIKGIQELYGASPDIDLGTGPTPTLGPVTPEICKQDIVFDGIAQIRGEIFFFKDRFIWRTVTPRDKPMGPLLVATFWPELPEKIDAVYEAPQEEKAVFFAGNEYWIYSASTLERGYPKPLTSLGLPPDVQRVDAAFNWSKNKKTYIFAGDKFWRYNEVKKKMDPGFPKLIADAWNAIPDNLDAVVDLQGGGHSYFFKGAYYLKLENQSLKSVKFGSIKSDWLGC
- Assay Details: Thiopeptolide hydrolysis assay, MMP-2FL
- Type: biochemical
- Condition Parameters: Table 2; thiopeptolide substrate, HEPES pH 7.0; read-out: IC50 (μM) Versus Certain MMPs: MMP02 (FL)
Reported IC50 by item:

Example results:
- Smiles Record: "CN1C(=O)N(Cc2ccc(C(=O)O)cc2)S(=O)(=O)c2cc(C(=O)NCc3ccccc3)ccc21"
  Study System: "MMP-2FL (full-length Gelatinase A) (Homo sapiens)"
  IC50: "> 100 µM"
- Smiles Record: "COc1ccc(CNC(=O)c2ccc3c(c2)S(=O)(=O)N(Cc2ccccc2)C(=O)N3C)cc1"
  Study System: "MMP-2FL (full-length Gelatinase A) (Homo sapiens)"
  IC50: "> 100 µM"

Switching to the query record.
[ask] Quote MMP-2FL (full-length Gelatinase A) (Homo sapiens) IC50 for entry `COc1ccc(CNC(=O)c2ccc3c(c2)S(=O)(=O)N(Cc2ccc(C(=O)O)cc2)C(=O)N3C)cc1` .
[reply] > 100 µM

---

Catalogue of IC50 readings, one per entry.
- Study System: MMP-1FL (full-length interstitial collagenase) (Homo sapiens)
- Sequence (P03956 100-469, species assumed): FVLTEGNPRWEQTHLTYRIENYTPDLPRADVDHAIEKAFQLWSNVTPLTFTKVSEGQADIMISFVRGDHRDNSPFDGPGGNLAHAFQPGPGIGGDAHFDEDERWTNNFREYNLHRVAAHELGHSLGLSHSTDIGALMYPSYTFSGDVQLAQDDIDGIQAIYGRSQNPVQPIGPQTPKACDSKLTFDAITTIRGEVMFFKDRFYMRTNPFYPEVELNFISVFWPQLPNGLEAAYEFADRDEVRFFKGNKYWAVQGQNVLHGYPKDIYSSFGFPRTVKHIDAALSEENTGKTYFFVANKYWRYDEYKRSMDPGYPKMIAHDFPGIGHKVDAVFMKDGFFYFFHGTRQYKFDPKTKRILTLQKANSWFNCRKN
- Assay Details: Thiopeptolide hydrolysis assay, MMP-1FL
- Type: biochemical
- Condition Parameters: Table 2; thiopeptolide substrate, HEPES pH 7.0; read-out: IC50 (μM) Versus Certain MMPs: MMP01 (FL)

[ask] Find the measured IC50 of COc1ccc(CNC(=O)c2ccc3c(c2)S(=O)(=O)N(Cc2ccc(S(=O)(=O)N4CCOCC4)cc2)C(=O)N3C)cc1 [Example 19] and report it.
[reply] > 30 µM

[ask] Using the record for COc1cc(CNC(=O)c2ccc3c(c2)S(=O)(=O)N(Cc2ccccc2)C(=O)N3C)ccn1 [Example 21] , state its measured IC50.
[reply] > 30 µM

[ask] Report measured IC50; entry is COc1ccc(CNC(=O)c2ccc3c(c2)S(=O)(=O)N(Cc2ccc(C(=O)O)cc2)C(=O)N3C)cc1 [Example 13]
[reply] > 100 µM

[ask] Identify IC50 associated with the compound COc1ccc(CNC(=O)c2ccc3c(c2)S(=O)(=O)N(Cc2ccc(CC(=O)O)cc2)C(=O)N3C)cc1 [Example 30]
[reply] > 100 µM

[ask] Note IC50 for the compound shown: CN1C(=O)N(Cc2ccc(C(=O)O)cc2)S(=O)(=O)c2cc(C(=O)NCc3ccccc3)ccc21 [Example 11]
[reply] > 100 µM

[ask] Read off the recorded IC50 for CNS(=O)(=O)c1ccc(CN2C(=O)N(C)c3ccc(C(=O)NCc4ccc(OC)cc4)cc3S2(=O)=O)cc1 [Example 18]
[reply] > 30 µM

---

# IC50 per entry
- Study System: MMP-3CD (catalytic domain of stromelysin-1) (Homo sapiens)
- Sequence (P08254 100-272 limits assumed): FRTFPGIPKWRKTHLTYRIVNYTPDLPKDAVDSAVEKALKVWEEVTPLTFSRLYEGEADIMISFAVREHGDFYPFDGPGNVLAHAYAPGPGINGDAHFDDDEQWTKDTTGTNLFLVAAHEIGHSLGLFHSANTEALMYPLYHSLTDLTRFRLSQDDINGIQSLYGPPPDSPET
- Assay Details: Thiopeptolide hydrolysis assay, MMP-3CD
- Assay type: biochemical
- Condition Parameters: Table 2; thiopeptolide substrate, MES buffer pH 6.0; read-out: IC50 (μM) Versus Certain MMPs: MMP03 (CD)
- Source text: The invention compounds of Formula I have been evaluated in standard assays for their ability to inhibit the catalytic activity of various MMP enzymes. Thiopeptolide substrates show virtually no decomposition or hydrolysis at or below neutral pH in the absence of a matrix metalloproteinase enzyme. Several representative compounds have been evaluated for their ability to inhibit various matrix metalloproteinase enzymes. […]

- Compound: "COc1ccc(CNC(=O)c2ccc3c(c2)S(=O)(=O)N(Cc2ccc(C(=O)NC(C(=O)O)C(C)C)cc2)C(=O)N3C)cc1 (stereo not drawn) [Example 28]"
  IC50: "> 30 µM"
- Compound: "COc1ccc(CNC(=O)c2ccc3c(c2)S(=O)(=O)N(Cc2ccccc2)C(=O)N3C)cc1 [Example 5]"
  IC50: "> 30 µM"

Next up:
[ask] Name the recorded IC50 of the item CN1C(=O)N(Cc2ccc(C(=O)O)cc2)S(=O)(=O)c2cc(C(=O)NCc3ccc(F)cc3)ccc21 [Example 25] in your answer.
[reply] > 30 µM

---

Entries annotated with measured IC50
- Study System: MMP-14CD (catalytic domain of MMP-14) (Homo sapiens)
- Assay Details: Thiopeptolide hydrolysis assay, MMP-14CD
- Assay type: biochemical
- Condition Parameters: Table 2; thiopeptolide substrate, HEPES pH 7.0; read-out: IC50 (μM) Versus Certain MMPs: MMP14 (CD)

The examples below pair each entry with its known result.
- Molecule: "COc1ccc(CNC(=O)c2ccc3c(c2)S(=O)(=O)N(Cc2ccc(-c4nn[nH]n4)cc2)C(=O)N3C)cc1 [Example 32]"
  Study System: "MMP-14CD (catalytic domain of MMP-14) (Homo sapiens)"
  IC50: "> 100 µM"
- Molecule: "COc1ccc(CNC(=O)c2ccc3c(c2)S(=O)(=O)N(Cc2ccc(C#N)cc2)C(=O)N3C)cc1 [Example 29]"
  Study System: "MMP-14CD (catalytic domain of MMP-14) (Homo sapiens)"
  IC50: "> 30 µM"
- Molecule: "CNS(=O)(=O)c1ccc(CN2C(=O)N(C)c3ccc(C(=O)NCc4ccc(OC)cc4)cc3S2(=O)=O)cc1 [Example 18]"
  Study System: "MMP-14CD (catalytic domain of MMP-14) (Homo sapiens)"
  IC50: "> 30 µM"
- Molecule: "COc1ccc(CNC(=O)c2ccc3c(c2)S(=O)(=O)N(Cc2ccc(C(N)=O)cc2)C(=O)N3C)cc1 [Example 14]"
  Study System: "MMP-14CD (catalytic domain of MMP-14) (Homo sapiens)"
  IC50: "> 30 µM"
- Molecule: "COc1cccc(CNC(=O)c2ccc3c(c2)S(=O)(=O)N(Cc2ccc(C(=O)O)cc2)C(=O)N3C)c1 [Example 31]"
  Study System: "MMP-14CD (catalytic domain of MMP-14) (Homo sapiens)"
  IC50: "> 100 µM"

[ask] For the molecule COc1ccc(CNC(=O)c2ccc3c(c2)S(=O)(=O)N(Cc2ccc(S(=O)(=O)N4CCOCC4)cc2)C(=O)N3C)cc1 [Example 19] , give its measured IC50 value.
[reply] > 30 µM
